Listed here: items and their measured IC50.
assay.target: KRAS-G13D (Homo sapiens, UniProt P01116, G13D)
Sequence (P01116 with tags, fused parts or gaps isoform P01116-2 G13D): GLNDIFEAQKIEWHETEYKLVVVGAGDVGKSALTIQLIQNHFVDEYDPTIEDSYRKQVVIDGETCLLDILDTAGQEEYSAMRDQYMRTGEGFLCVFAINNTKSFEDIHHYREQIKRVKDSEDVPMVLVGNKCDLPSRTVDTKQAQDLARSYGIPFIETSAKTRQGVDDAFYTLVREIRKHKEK
measurement.protocol: SOS-catalyzed nucleotide exchange assay (Procedure A, TR-FRET), KRAS-G13D
Type: biochemical
study.conditions: nucleotide exchange, Procedure A; read-out: KRAS G13D GNE IC50
test.readout: IC50 (nM)

[[record]]
compound = "Cc1cc2[nH]ncc2c(-c2nccc3c4c(N5CCOCC(O)C5)nc(OC[C@@]56CCCN5C[C@H](F)C6)nc4n(C)c23)c1C(F)(F)F (single isomer, unassigned)"
test_readout = "IC50"
observed = 789

[[record]]
compound = "C[C@@]1(O)COCCN(c2nc(OC[C@@]34CCCN3C[C@H](F)C4)nc3sc4c(-c5c(C6CC6)c(Cl)cc6[nH]ncc56)nncc4c23)C1"
test_readout = "IC50"
observed = 4.89

[[record]]
compound = "Cc1cc(-c2nccc3c2sc2nc(OC[C@@]45CCCN4C[C@H](F)C5)nc(N4CCOC[C@@](C)(O)C4)c23)c2cn[nH]c2c1"
test_readout = "IC50"
observed = 2450


###

assay.target: KRAS-G12V (Homo sapiens, UniProt P01116, G12V)
Sequence (P01116 with tags, fused parts or gaps isoform P01116-2 G12V): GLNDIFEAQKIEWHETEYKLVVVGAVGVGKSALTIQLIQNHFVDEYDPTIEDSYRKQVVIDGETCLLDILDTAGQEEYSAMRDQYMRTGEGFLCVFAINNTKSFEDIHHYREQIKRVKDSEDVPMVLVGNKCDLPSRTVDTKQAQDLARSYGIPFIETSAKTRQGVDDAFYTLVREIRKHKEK
measurement.protocol: SOS-catalyzed nucleotide exchange assay (Procedure A, TR-FRET), KRAS-G12V
Type: biochemical
study.conditions: nucleotide exchange, read-out: KRAS G12V GNE IC50
pIC50: −log10 of the molar value.
test.readout: pIC50

[[record]]
compound = "Cc1cc2[nH]ncc2c(-c2nccc3c2oc2nc(OC[C@@]45CCCN4C[C@H](F)C5)nc(N4CCOC[C@@](C)(O)C4)c23)c1C(F)(F)F [Ex-290]"
observed = 6.44

[[record]]
compound = "C=C(C)c1c(C(F)(F)F)cc2[nH]ncc2c1-c1nccc2c1sc1nc(OCC34CCCN3CC(F)C4)nc(N3CCOCC(C)(O)C3)c12 (centres unmarked) [Ex-60]"
observed = 7.73

[[record]]
compound = "C#Cc1cc(F)cc2cc3[nH]ncc3c(-c3nccc4c3sc3nc(OC[C@@]56CCCN5C[C@H](F)C6)nc(N5CCOC[C@@](C)(O)C5)c34)c12 [Ex-165]"
observed = 7.96

[[record]]
compound = "Cc1cc2[nH]ncc2c(-c2nc(C#N)cc3c2sc2nc(OC[C@@]45CCCN4C[C@H](F)C5)nc(N4CCOC[C@@](C)(O)C4)c23)c1C(F)(F)F [Ex-31]"
observed = 6.66

[[record]]
compound = "C[C@@]1(O)COCCN(c2nc(OC[C@@]34CCCN3C[C@H](F)C4)nc3sc4c(-c5cccc(Cl)c5C5CC5)nccc4c23)C1 [Ex-122]"
observed = 6.55

[[record]]
compound = "C[C@@]1(O)COCCN(c2nc(OC[C@@]34CCCN3C/C(=C\\F)C4)nc3sc4c(-c5c(C6CC6)c(Cl)cc6[nH]ncc56)nccc4c23)C1 [Ex-208]"
observed = 7.95

[[record]]
compound = "CN1CCC[C@@]2(COc3nc(N4CCOC[C@@](C)(O)C4)c4c(n3)sc3c(-c5c(C6CC6)c(Cl)cc6[nH]ncc56)nccc34)CCC[C@@H]12 [Ex-217]"
observed = 7.88

[[record]]
compound = "CCn1c2nc(OC[C@@]34CCCN3C[C@H](F)C4)nc(N3CCOC[C@@](C)(O)C3)c2c2ccnc(-c3c(C(F)(F)F)c(C)cc4[nH]ncc34)c21 [Ex-24]"
observed = 6.31

[[record]]
compound = "C[C@@]1(O)COCCN(c2nc(OC[C@]3(CN4C[C@H]5CCCO[C@H]5C4)CC3(F)F)nc3sc4c(-c5c(C6(F)CC6)c(Cl)cc6[nH]ncc56)nccc4c23)C1 [Ex-255]"
observed = 7.83

[[record]]
compound = "Cc1cc2[nH]ncc2c(-c2nccc3c2sc2nc(OC[C@@]45CCCN4C[C@H](F)C5)nc(N4CCOC[C@@](C)(O)C4)c23)c1-c1ccc(F)o1 [Ex-72]"
observed = 7.45

[[record]]
compound = "Cc1cc2[nH]ncc2c(-c2nccc3c4c(N5CCC[C@@](C)(O)C5)nc(OC[C@@]56CCCN5C[C@H](F)C6)nc4n(C)c23)c1C(F)(F)F (single isomer, unassigned) [Ex-5]"
observed = 7.09

[[record]]
compound = "C[C@@]1(O)COCCN(c2nc(OC[C@@]34CCCN3C[C@H](F)C4)nc3sc4c(-c5c(C(F)(F)F)c(C(F)F)cc6[nH]ncc56)nccc4c23)C1 [Ex-155]"
observed = 6.68

[[record]]
compound = "CN(C)C1CC(F)(F)C2C[C@]12COc1nc(N2CCOC[C@@](C)(O)C2)c2c(n1)sc1c(-c3c(C4(F)CC4)c(Cl)cc4[nH]ncc34)nccc12 (some centres unmarked) [Ex-270]"
observed = 7.51

[[record]]
compound = "CC1(C)C2CN(C[C@@]3(COc4nc(N5CCOC[C@@](C)(O)C5)c5c(n4)sc4c(-c6c(C7(F)CC7)c(Cl)cc7[nH]ncc67)nccc45)CC3(F)F)CC21 (some centres unmarked) [Ex-234]"
observed = 6.97

[[record]]
compound = "C=C(F)c1c(C(F)(F)F)cc2[nH]ncc2c1-c1nccc2c1sc1nc(OC[C@@]34CCCN3C[C@H](F)C4)nc(N3CCOC[C@@](C)(O)C3)c12 [Ex-58]"
observed = 7.87

[[record]]
compound = "Cn1c2nc(OC[C@@]34CCCN3C[C@H](F)C4)nc(N3CCOC[C@@](C)(O)C3)c2c2ccnc(-c3c(C4CC4)c(Cl)cc4[nH]ncc34)c21 (single isomer, unassigned) [Ex-2]"
observed = 7.43

[[record]]
compound = "Cc1cc2[nH]ncc2c(-c2nccc3c2sc2nc(OC[C@@]45CCCN4C[C@H](F)C5)nc(N4CCOC[C@@](C)(O)C4)c23)c1C12CC(C1)C2 [Ex-43]"
observed = 7.57

[[record]]
compound = "Cc1cc2[nH]ncc2c(-c2nccc3c2sc2nc(OC[C@@]45CCCN4C[C@H](F)C5)nc(N4CCOC[C@@](C)(O)C4)c23)c1-c1ccco1 [Ex-146]"
observed = 7.66

[[record]]
compound = "C#Cc1cccc2[nH]nc(-c3nccc4c3sc3nc(OC[C@@]56CCCN5C[C@H](F)C6)nc(N5CCOC[C@@](C)(O)C5)c34)c12 [Ex-159]"
observed = 6.93

[[record]]
compound = "Cc1cc2[nH]ncc2c(-c2nccc3c4c(N5CCOC[C@@](C)(O)C5)nc(OC[C@@]56CCCN5C[C@H](F)C6)nc4n(C)c23)c1C(F)F (single isomer, unassigned) [Ex-10]"
observed = 7.27

[[record]]
compound = "C[C@@]1(O)COCCN(c2nc(OC[C@]3(CN4CCC5(CC4)CC5)CC3(F)F)nc3sc4c(-c5c(C6(F)CC6)c(Cl)cc6[nH]ncc56)nccc4c23)C1 [Ex-233]"
observed = 7.59

[[record]]
compound = "Cc1cc2[nH]ncc2c(-c2nccc3c2sc2nc(OC[C@@]45CCCN4C[C@H](F)C5)nc(N4CCC[C@@]5(CNC(=O)O5)C4)c23)c1C(F)(F)F [Ex-196]"
observed = 7.71

[[record]]
compound = "C[C@@]1(O)COCCN(c2nc(OC[C@@]34CCCN3C[C@H](F)C4)nc3sc4c(-c5c(-c6ccco6)c(Cl)cc6[nH]ncc56)nccc4c23)C1 [Ex-148]"
observed = 8.03


###

assay.target: KRAS-WT (Homo sapiens)
Sequence (P01116 with tags, fused parts or gaps isoform P01116-2): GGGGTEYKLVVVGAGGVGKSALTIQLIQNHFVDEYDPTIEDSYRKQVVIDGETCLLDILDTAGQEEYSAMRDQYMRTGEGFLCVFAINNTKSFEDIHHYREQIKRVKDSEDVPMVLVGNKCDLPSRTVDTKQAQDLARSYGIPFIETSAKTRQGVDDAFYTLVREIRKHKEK
measurement.protocol: SOS-catalyzed nucleotide exchange assay (Procedure A, TR-FRET), KRAS-WT
Format: biochemical
study.conditions: nucleotide exchange, read-out: KRAS WT GNE IC50
pIC50: −log10 of the molar value.
Class field: derived from pIC50; ranges lower = under 6, middle = from 6 up to 7, upper = 7 and over

[[record]]
compound = "C#CC(F)(F)c1c(C)cc2[nH]ncc2c1-c1nccc2c1sc1nc(OC[C@@]34CCCN3C[C@H](F)C4)nc(N3CCOC[C@@](C)(O)C3)c12 [Ex-153]"
qualitative_label = "middle"

[[record]]
compound = "Cc1cc2[nH]ncc2c(-c2nncc3c2sc2nc(OC[C@@]45CCCN4C[C@H](F)C5)nc(N4CCOC[C@@](C)(O)C4)c23)c1-c1ccco1 [Ex-281]"
qualitative_label = "upper"

[[record]]
compound = "Cc1cc2[nH]ncc2c(-c2nccc3c2sc2nc(OC[C@@]45CCCN4C[C@H](F)C5)nc(N4CCOCC4)c23)c1C(F)(F)F [Ex-179]"
qualitative_label = "lower"

[[record]]
compound = "Cc1cc2[nH]ncc2c(-c2nccc3c2sc2nc(OC[C@@]45CCCN4C[C@H](F)C5)nc(N4CCOC[C@@](C)(O)C4)c23)c1Cl [Ex-32]"
qualitative_label = "middle"

[[record]]
compound = "Cc1cc2[nH]nc(C#N)c2c(-c2nccc3c4c(N5CCOC[C@@](C)(O)C5)nc(OC[C@@]56CCCN5C[C@H](F)C6)nc4n(C)c23)c1C(F)(F)F (single isomer, unassigned) [Ex-4]"
qualitative_label = "middle"

[[record]]
compound = "Cc1cc2[nH]ncc2c(-c2nccc3c2sc2nc(OC[C@@]45CCCN4C[C@H](F)C5)nc(N4CCOC[C@@](C)(O)C4)c23)c1OC(F)(F)Cl [Ex-39]"
qualitative_label = "upper"

[[record]]
compound = "Cc1cc2[nH]ncc2c(-c2nccc3c2sc2nc(OC[C@@]45CCCN4C[C@H](F)C5)nc(NC45CC(O)(C4)C5)c23)c1C(F)(F)F [Ex-187]"
qualitative_label = "middle"

[[record]]
compound = "Cc1cc2[nH]nc(C#N)c2c(-c2nccc3c2sc2nc(OC[C@@]45CCCN4C[C@H](F)C5)nc(N4CCOC[C@@](C)(O)C4)c23)c1C(F)(F)F [Ex-150]"
qualitative_label = "lower"

[[record]]
compound = "C[C@@H]1CN(C[C@@]2(COc3nc(N4CCOC[C@@](C)(O)C4)c4c(n3)sc3c(-c5c(C6(F)CC6)c(Cl)cc6[nH]ncc56)nccc34)CC2(F)F)C[C@H](C)O1 [Ex-246]"
qualitative_label = "middle"

[[record]]
compound = "C=C(C)c1c(C)cc2[nH]ncc2c1-c1nccc2c1oc1nc(OC[C@]3(CN(C)C)CC3(F)F)nc(N3CCOC[C@@](C)(O)C3)c12 [Ex-293]"
qualitative_label = "middle"

[[record]]
compound = "C#Cc1c(F)sc2cc3[nH]ncc3c(-c3nccc4c3sc3nc(OC[C@@]56CCCN5C[C@H](F)C6)nc(N5CCOC[C@@](C)(O)C5)c34)c12 [Ex-164]"
qualitative_label = "upper"

[[record]]
compound = "C[C@@]1(O)COCCN(c2nc(OC[C@@]34CCCN3CC(=C(F)F)C4)nc3sc4c(-c5c(C6(F)CC6)c(Cl)cc6[nH]ncc56)nccc4c23)C1 [Ex-272]"
qualitative_label = "upper"

[[record]]
compound = "C[C@@]1(O)COCCN(c2nc(OC[C@@]34CCCN3C[C@H](F)C4)nc3sc4c(-c5c(-c6cccs6)c(Cl)cc6[nH]ncc56)nccc4c23)C1 [Ex-143]"
qualitative_label = "middle"

[[record]]
compound = "C[C@@]1(O)COCCN(c2nc(OC[C@]3(CN4CC(C#N)C4)CC3(F)F)nc3sc4c(-c5c(C6(F)CC6)c(Cl)cc6[nH]ncc56)nccc4c23)C1 [Ex-238]"
qualitative_label = "middle"

[[record]]
compound = "Cc1cc2[nH]ncc2c(-c2nccc3c2sc2nc(OC[C@@]45CCCN4C[C@H](F)C5)nc(N4CCOC[C@@](C)(O)C4)c23)c1-c1ccco1 [Ex-146]"
qualitative_label = "upper"

[[record]]
compound = "C[C@@]1(O)COCCN(c2nc(OC[C@@]34CCCN3C[C@H](F)C4)nc3sc4c(-c5c(C6=CCC6)c(Cl)cc6[nH]ncc56)nccc4c23)C1 [Ex-70]"
qualitative_label = "upper"

[[record]]
compound = "C#Cc1c(F)ccc2cc(N)nc(-c3nccc4c5c(N6CCOC[C@@](C)(O)C6)nc(OC[C@@]67CCCN6C[C@H](F)C7)nc5n(C)c34)c12 [Ex-17]"
qualitative_label = "lower"

